Data provenance is patent US9221807B2.

system: Human neutrophil elastase (Homo sapiens, UniProt P08246)
Construct: purchased Calbiochem 324681
Sequence (P08246 30-267): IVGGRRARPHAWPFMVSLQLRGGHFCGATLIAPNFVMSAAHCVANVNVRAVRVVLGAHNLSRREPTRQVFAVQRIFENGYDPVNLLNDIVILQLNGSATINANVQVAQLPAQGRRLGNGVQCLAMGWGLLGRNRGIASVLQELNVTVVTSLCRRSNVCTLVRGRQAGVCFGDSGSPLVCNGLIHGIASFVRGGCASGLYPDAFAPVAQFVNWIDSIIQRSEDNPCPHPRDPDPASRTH
protocol summary: Human Neutrophil Elastase Assay
Type: biochemical
recorded conditions: substrate MeOSuc-Ala-Ala-Pro-Val-AMC 250 μM, pH 7.5, fluorescence
Method: Human Neutrophil Elastase Assay Materials: Human neutrophil elastase was purchased from Calbiochem (Cat. No.: 324681) and the elastase substrate MeOSuc-Ala-Ala-Pro-Val-AMC from Bachem (Cat. No.: 1-1270). All other materials were of the highest grade commercially available. […] After inactivation of the enzyme, fluorescence intensities were measured at 380 nm excitation and 460 nm emission wavelengths. […]
assay metric: IC50 (nM)

Look over these answered cases.
Cc1c(-c2ccnn2C)cc(C(=O)NCc2ccc(S(C)(=O)=N/C(N)=N/O)cc2)c(=O)n1-c1cccc(C(F)(F)F)c1 (stereo not shown) [Example 8]    64.4
Cc1c(-c2ccnn2C)cc(C(=O)NCc2ccc(S(C)(=O)=NC(=O)N3CCOCC3)cc2)c(=O)n1-c1cccc(C(F)(F)F)c1 (stereo not shown) [Example 9.2]    72.7
Cc1c(-c2ccnn2C)cc(C(=O)NCc2ccc(/S(C)=N/C(N)=O)cc2)c(=O)n1-c1cccc(C(F)(F)F)c1 (stereo not shown) [Example 5]    35.7
CN=S(C)(=N)c1ccc(CNC(=O)c2cc(-c3ccnn3C)c(C)n(-c3cccc(C(F)(F)F)c3)c2=O)cc1 (stereo not shown) [Example 15.1]    88.7
Cc1c(-c2ccnn2C)cc(C(=O)NCc2ccc(S(C)=N)cc2)c(=O)n1-c1cccc(C(F)(F)F)c1 (stereo not shown) [Example 2]    42
CC(=O)N=S(C)(=O)c1ccc(CNC(=O)c2cc(-c3ccnn3C)c(C)n(-c3cccc(C(F)(F)F)c3)c2=O)cc1 (stereo not shown) [Example 9.1]    37
COCCN=S(C)(=N)c1ccc(CNC(=O)c2cc(-c3ccnn3C)c(C)n(-c3cccc(C(F)(F)F)c3)c2=O)cc1 (stereo not shown) [Example 15]    43.5
Cc1c(-c2ccnn2C)cc(C(=O)NCc2ccc(S(C)(=O)=NC(N)=O)cc2)c(=O)n1-c1cccc(C(F)(F)F)c1 (stereo not shown) [Example 6]    45.8
CN=S(=O)(c1ccc(CNC(=O)c2cc(-c3ccnn3C)c(C)n(-c3cccc(C(F)(F)F)c3)c2=O)cc1)N(C)OC (stereo not shown) [Example 1.3]    12.5
Cc1c(-c2ccnn2C)cc(C(=O)NCc2ccc(S(C)(=O)=NS(C)(=O)=O)cc2)c(=O)n1-c1cccc(C(F)(F)F)c1 (stereo not shown) [Example 9.3]    12.6

(A) CN=S(=O)(c1ccc(CNC(=O)c2cc(-c3ccnn3C)c(C)n(-c3cccc(C(F)(F)F)c3)c2=O)cc1)N1CCCCC1 (stereo not shown) [Example 13]
(B) COC(=O)N=S(C)(=O)c1ccc(CNC(=O)c2cc(-c3ccnn3C)c(C)n(-c3cccc(C(F)(F)F)c3)c2=O)cc1 (stereo not shown) [Example 9]
(C) CNC(=O)N=S(C)(=O)c1ccc(CNC(=O)c2cc(-c3ccnn3C)c(C)n(-c3cccc(C(F)(F)F)c3)c2=O)cc1 (stereo not shown) [Example 10]
Task: Order each entry by recorded IC50, climbing from the minimum. Your task in answering is to list the labels in the requested order.
Result: B, A, C
(B: 17.6 nM, A: 28.4 nM, C: 50 nM)
